B1: library; a variant is named by its letters at N, in order (parent)
chain: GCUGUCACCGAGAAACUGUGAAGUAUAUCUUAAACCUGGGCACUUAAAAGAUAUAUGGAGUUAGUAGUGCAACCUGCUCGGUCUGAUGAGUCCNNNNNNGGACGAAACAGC

# Variants of: B1
# testName: normalized RNA/DNA level with ligand (relative to sTRSVctl = 100) (log10 (% of sTRSVctl)); HEK293T; ligand: cyclic di-GMP (c-di-GMP-II aptamer); ligand concentration (+) RNA-Seq: 1 mM; higher = less ribozyme self-cleavage, higher mRNA level
# runParameters: reporter: mCherry (pCS4076), ligand present: yes
measuredAttribute: normalized RNA/DNA level with ligand (log10)
Give only the figure.

Observe how each entry below is paired with its result.
INSERT INTO measurements (mutationstring, quantitativeresult) VALUES
  ('CUCCAG', 1.86),
  ('AGCUCA', 1.81),
  ('ACGGAA', 1.47),
  ('UCUCAC', 1.87),
  ('GUGGUA', 1.72);

Continue with the variant presented below.
// query Tell me measured normalized RNA/DNA level with ligand (log10) for CGGCGA please.
// result 1.67

Source of measurements: the supplement of paper PMC6757056
